All figures here come from PubChem BioAssay.

# System: Sam68 (KHDRBS1)
# method.description: compounds binding KHDRBS1 protein – biochemical, small-molecule microarray, 635 nm fluorescence, primary screen (AID 1125);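 note: score merges 667 nm channel intensity with signal to noise over triplicate slides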
# measurement.setup: higher = more signal
composite z-score listing for selected compounds.

| structure | composite z-score |
| --- | --- |
| COCCCNC(=O)[C@@]1(CCS(=O)(=O)c2ccccc2)N=C(c2ccc(OCCCO)cc2)O[C@H]1c1ccccc1N=[N+]=[N-] | 1.3 |
| COCCOC(=O)N1C(=O)[C@@]2(c3ccccc31)[C@H](C(=O)N1CCCCCCC1)[C@H]1C(=O)O[C@H](c3ccccc3)[C@H](c3ccccc3)N1[C@@H]2c1ccc(OCCO)cc1 | 1.32 |
| C[N+](C)(C)CCCCCCNC(=O)[C@H]1C[C@H]2C(=O)N[C@@H](Cc3ccccc3)C(=O)N2[C@H]1c1cccc(OCCO)c1 | 0.699 |
| C=CC[C@]1(C(N)=O)N=C(c2ccc(OCCCO)cc2)O[C@H]1c1ccccc1 | -0.188 |
| COC(=O)[C@@]1(Cc2ccc(F)cc2)[C@H]2c3cc(C(=O)N(C)C)n(Cc4cc(C)n(C)n4)c3C[C@H]2CN1C(=O)c1ccccc1 | 1.31 |
| O=C1[C@H]2C=C(I)[C@H](C[C@@H]2OCCCCO)[C@@]12CO2 | 0.579 |
| C#CCNCc1ccccc1 | 0.44 |
| O=C(CS)NCCCCCNC(=O)[C@H]1C[C@H]2C(=O)NCC(=O)N2[C@H]1c1ccc(O)cc1 | -1.3 |

====

Below is a list of entries, each paired with its recorded composite z-score value.
# method.description: probe aEGFR binding to arrayed compounds – biochemical, biotinylated probe, 635/667 nm fluorescence, primary screen (AID 1097);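 note: probe is a biotinylated anti-EGFR antibody binding compounds printed on slides; score combines fluorescence near 667 nm and signal to noise of each spot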
# measurement.setup: small-molecule microarray, higher = more signal

| molecule | composite z-score |
| --- | --- |
| COCCOC(=O)N1C(=O)[C@@]2(c3cc(C#CC4(O)CCCCCC4)ccc31)[C@H](c1ccccc1OCCO)N1[C@H](c3ccccc3)[C@H](c3ccccc3)OC(=O)[C@H]1[C@@H]2C(=O)N1CCc2cc(OC)c(OC)cc2C1 | 0.0092 |
| CN(C)CCCC[C@@H]1NC(=O)[C@H]2C[C@@H](C(=O)NCCCCCN)[C@@H](c3cccc(OCCO)c3)N2C1=O | 0.374 |
| C=CCNC(=O)[C@@H]1[C@H]2C(=O)O[C@H](c3ccccc3)[C@H](c3ccccc3)N2[C@H](c2ccc(OCCO)cc2)[C@@]12C(=O)N(C(=O)OCCOC)c1ccc(C#CCNC(N)=O)cc12 | -0.0069 |
| O=C1C2C=CC(C(O)c3c(F)cccc3Cl)N(Nc3ccccc3F)C2C(=O)N1c1ccccc1 (stereo not given) | 0.196 |
| [N-]=[N+]=Nc1ccccc1C[C@]1(C(=O)N2CCCCC2)COC(c2ccc(OCCCO)cc2)=N1 | -0.0828 |
| CCOC(=O)C[C@H]1[C@H](OC(=O)c2cc3ccccc3oc2=O)[C@@H](NC(=O)CC(C)C)c2cc(OCCCO)ccc2N1C(=O)c1ccccc1 | -0.0828 |
| C=CCC(OC(C)=O)[C@@H]1[C@@H](N(Cc2ccc(-c3ccccc3)cc2)C(=O)Cc2ccc(F)cc2)c2cc(OCCCO)ccc2N1C(=O)c1ccc2ccccc2c1 (stereo not given in full) | -0.109 |
| O=C1NC(=O)C2C1C=CC(C(O)c1ccc(I)cc1)N2Nc1ccccn1 (stereo not given) | -0.0947 |
| O=c1cccc(-c2ccccc2Cl)o1 | -0.139 |
| C=CC[C@@]1(C(=O)N2CCCCC2)N=C(c2ccc(OCCCO)cc2)O[C@@H]1c1ccccc1N=[N+]=[N-] | 0.14 |
| CCCCCCc1nc(-c2ccc(-c3ccc(Cl)c(Cl)c3)o2)c(C)c2c1[Si](C(C)C)(C(C)C)OC2 | -0.233 |
| CCOC(=O)C1=C[C@@H](C(C)C)N(S(=O)(=O)c2ccc(C)cc2)[C@H]1c1ccccc1F | 0.0353 |
| C=CCC(OC(C)=O)[C@@H]1[C@@H](N(Cc2ccc(-c3cccc(C(F)(F)F)c3)o2)C(=O)c2cccc3ccccc23)c2cc(OCCCO)ccc2N1C(=O)Cc1ccc2ccccc2c1 (stereo not given in full) | -0.146 |
| COC(=O)[C@@]1(Cc2ccccc2)[C@H]2c3cc(C(=O)N(C)C)n(CCc4c[nH]c5ccc(O)cc45)c3C[C@H]2CN1C(=O)c1ccccc1 | -0.0234 |
| COc1ccc([C@H]2OC[C@@H]3CCC(=O)N32)cc1 | 0.0826 |

====

# target.desc: Neurogenic locus notch homolog protein 2 (Homo sapiens)
# method.description: small molecules binding Notch2 protein – biochemical, small-molecule microarray, 635 nm fluorescence, stem cell growth factors, primary screen (AID 1073)
# measurement.setup: higher = more signal
The following molecules are listed with their measured composite z-score values.

| molecule | composite z-score |
| --- | --- |
| COc1ccc(C(=O)Nc2ccc(CN3C(=O)[C@]4(O[C@H](CC(=O)N5CCC[C@H]5CO)[C@@H]([Si](C)(C)c5ccc(OC)cc5)[C@@H]4C)c4ccccc43)cc2)cc1 | 0.351 |
| CCOc1cc(C(O)C2C=CC3C(=O)N(c4ccccc4)C(=O)C3N2Nc2ccc(C(C)C)cc2)ccc1O (stereo not given) | 1.52 |
| C=CCN1C(=O)[C@]2(O[C@H](CCO)[C@@H]([Si](C)(C)c3ccc(OC)cc3)[C@@H]2C)c2cc(N(C=O)c3ccccc3)ccc21 | 0.425 |
| CCCC[C@@H]1C[C@H]1[C@@H](NC(=O)c1cccnc1)c1ccc(Cl)cc1 | -1.69 |
| COC(=O)C[C@H]1O[C@@H](CCc2ccccc2)[C@@H](C)[C@@H]1[Si](C)(C)c1ccc(OC)cc1 | -0.514 |
| C#CCN1[C@@H](Cc2ccc(O)cc2)C(=O)O[C@H](Cc2ccccc2)[C@@H]1/C=C/C1CC1 | -0.586 |
| CCCCCN1CC=CC23O[C@@H]4C=CCOC(=O)[C@@H]4[C@H]2C(=O)N(C(C)CO)[C@@H]3C1=O (stereo not given in full) | -0.825 |
| NC(=O)[C@@H]1[C@H]2C(=O)O[C@H](c3ccccc3)[C@H](c3ccccc3)N2[C@H](c2ccc(OCCO)cc2)[C@@]12C(=O)Nc1ccc(C#CC3=CCCCC3)cc12 | 1.23 |
| O=C1C2C=CC(C(O)c3ccc(-c4ccccc4)s3)N(Nc3ccccc3)C2C(=O)N1c1ccccc1 (stereo not given) | 1.61 |
| COc1ccc(C(=O)Nc2cccc(CN3C(=O)[C@]4(O[C@H](CCn5cc(CCO)nn5)[C@@H]([Si](C)(C)c5ccc(OC)cc5)[C@@H]4C)c4ccccc43)c2)cc1 | 0.91 |
| CC(C)(C)OC(=O)CC[C@]1(C(=O)NCCN2CCOCC2)COC(c2ccc(OCCCO)cc2)=N1 | 0.361 |
| C=C(C)[C@@H]1CC=C(C(O)C2C=CC3C(=O)NC(=O)C3N2Nc2ccc(Cl)cc2Cl)CC1 (stereo not given in full) | 1.42 |
| COC(=O)[C@@]1(Cc2ccc(OC)cc2)[C@H]2c3cc(C(=O)N4CCCC4)n(CCc4ccc(O)c(O)c4)c3C[C@H]2CN1C(=O)c1ccccc1 | 1.33 |
| CN1C(=O)C2C=CC(C(O)c3c(F)cccc3Cl)N(NC(=O)OC(C)(C)C)C2C1=O (stereo not given) | 1.23 |
| COc1ccc([Si](C)(C)[C@@H]2[C@@H](CCO)O[C@]3(C(=O)N(Cc4cccc(N5CCOC5=O)c4)c4ccccc43)[C@H]2C)cc1 | 1.03 |

====

# target.desc: Calmodulin-1 (Homo sapiens) (UniProt P0DP23)
# method.description: small molecules binding calmodulin-1 with EGTA – biochemical, small-molecule microarray, Cy5-labelled CALM1, profiling panel (AID 1111);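 note: labelled calmodulin applied in Tris saline Tween buffer holding calcium plus EGTA and DTT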
# measurement.setup: Cy5-CALM1 binding fluorescence, higher = more signal
Reported composite z-score is given for each of the following compounds.
measured.property: composite z-score

| compound | measured.property | measured.result |
| --- | --- | --- |
| COc1cc2c(cc1O)C(c1cccs1)N(Cc1ccc([N+](=O)[O-])o1)CC2 (configuration not stated) | composite z-score | 1.5 |
| O=C(CS)NCCCCCNC(=O)[C@@H]1C[C@@H]2C(=O)NCC(=O)N2[C@@H]1c1cccc(OCCO)c1 | composite z-score | 0.129 |
| CCCCC(=C=CC[C@H](O)c1cccc(OCCO)c1)C[C@H](O)c1ccccn1 | composite z-score | 0.481 |
| COc1ccc(NN2C(C(O)c3ccc(N(C)C)cc3)C=CC3C(=O)N(C4CCCCC4)C(=O)C32)cc1 (configuration not stated) | composite z-score | 1.21 |
| C[C@H]1C2[C@H](Cc3ccccc3)NC(=O)[C@]23C(=O)NCC(=O)N2CCC[C@H]2C(=O)NC/C=C/CCC/C=C/C3[C@@H]2O[C@]12C (some centres not stated) | composite z-score | -0.738 |
| COc1ccc(C#Cc2ccc3c(c2)[C@]2(C(=O)N3)[C@H](c3ccc(O)cc3)N3[C@H](c4ccccc4)[C@H](c4ccccc4)OC(=O)[C@H]3[C@@H]2C(=O)N2CCc3cc(OC)c(OC)cc3C2)cc1 | composite z-score | 1.02 |
| O=C1C2C=CC(C(O)c3ccc(-c4ccccc4)s3)N(Nc3ccccc3)C2C(=O)N1c1ccccc1 (configuration not stated) | composite z-score | 1.45 |
